# Test system: Bacillus subtilis
# Procedure summary: Antibacterial activity against Bacillus subtilis assessed as inhibition of visible growth incubated for 16 to 18 hrs by CLSI method
# Type: functional
# Conditions: time 16-18 hrs, read-out: MIC100
Experimental endpoint: MIC
I'd appreciate it if you wrote the number followed by its unit.

Please indicate MIC recorded for `C=CCc1ccc(O)c(-c2cc(CC=C)ccc2OCC[N+](C)(C)CC(=O)NCCCCCC)c1.[Br-]`
4 µg/mL

// fetch MIC given entry `C=CCc1ccc(OCCC[N+](C)(C)CC(=O)NCCC)c(-c2ccc(OCCC[N+](C)(C)CC(=O)NCCC)c(CC=C)c2)c1.[Br-].[Br-]`
1 µg/mL

Give a short answer stating reported MIC for `C=CCc1ccc(O)c(-c2cc(CC=C)ccc2OCCCC[N+](C)(C)CC(=O)NCCCCC)c1.[Br-]` .
2 µg/mL

# return recorded MIC for entry `C=CCc1ccc(OCCC[N+](C)(C)CC(=O)N(CCCC)CCCC)c(-c2ccc(OCCC[N+](C)(C)CC(=O)N(CCCC)CCCC)c(CC=C)c2)c1.[Br-].[Br-]`
2 µg/mL

Return MIC (reported value) for this molecule: `C=CCc1ccc(OCCC[N+](C)(C)CC(=O)NCCCC)c(-c2ccc(OCCC[N+](C)(C)CC(=O)NCCCC)c(CC=C)c2)c1.[Br-].[Br-]`
1 µg/mL

Report MIC for `C=CCc1ccc(OCCCC[N+](C)(C)CC(=O)NCCCCCC)c(-c2ccc(OCCCC[N+](C)(C)CC(=O)NCCCCCC)c(CC=C)c2)c1.[Br-].[Br-]`
4 µg/mL

Note down MIC recorded for `C=CCc1ccc(OCC[N+](C)(C)CC(=O)NCCCCCC)c(-c2ccc(OCC[N+](C)(C)CC(=O)NCCCCCC)c(CC=C)c2)c1.[Br-].[Br-]`
4 µg/mL

Give MIC for `C=CCc1ccc(O)c(-c2cc(CC=C)ccc2OCCCC[N+](C)(C)CC(=O)NCCCCCC)c1.[Br-]`
1 µg/mL

# return recorded MIC for input `C=CCc1ccc(O)c(-c2cc(CC=C)ccc2OCC[N+](C)(C)CC(=O)N(CCCC)CCCC)c1.[Br-]`
1 µg/mL

Give a short answer stating reported MIC for `C=CCc1ccc(O)c(-c2cc(CC=C)ccc2OCCC[N+](C)(C)CC(=O)NCCCCC)c1.[Br-]` .
1 µg/mL

Tell me measured MIC for `C=CCc1ccc(OCC[N+](C)(C)CC(=O)NCC)c(-c2ccc(OCC[N+](C)(C)CC(=O)NCC)c(CC=C)c2)c1.[Br-].[Br-]` please.
4 µg/mL

Given `C=CCc1ccc(OCCC[N+](C)(C)CC(=O)NCCCCC)c(-c2ccc(OCCC[N+](C)(C)CC(=O)NCCCCC)c(CC=C)c2)c1.[Br-].[Br-]` , respond with its MIC.
8 µg/mL

// Input: `C=CCc1ccc(O)c(-c2cc(CC=C)ccc2OCCC[N+](C)(C)CC(=O)NCCCC)c1.[Br-]` . Output its MIC only.
1 µg/mL

Report MIC, nothing else, for this molecule: `C=CCc1ccc(OCCCC[N+](C)(C)CC(=O)N(CCCC)CCCC)c(-c2ccc(OCCCC[N+](C)(C)CC(=O)N(CCCC)CCCC)c(CC=C)c2)c1.[Br-].[Br-]`
2 µg/mL

Please report the measured MIC for C=CCc1ccc(O)c(-c2cc(CC=C)ccc2O)c1 [MAGNOLOL]
16 µg/mL

Give the reported value of MIC for this record: CN[C@H](CC(C)C)C(=O)N[C@H]1C(=O)N[C@@H](CC(N)=O)C(=O)N[C@H]2C(=O)N[C@H]3C(=O)N[C@H](C(=O)N[C@H](C(=O)O)c4cc(O)cc(O)c4-c4cc3ccc4O)[C@H](O)c3ccc(c(Cl)c3)Oc3cc2cc(c3O[C@@H]2O[C@H](CO)[C@@H](O)[C@H](O)[C@H]2O[C@H]2C[C@](C)(N)[C@H](O)[C@H](C)O2)Oc2ccc(cc2Cl)[C@H]1O [VANCOMYCIN]
0.25 µg/mL

Name the recorded MIC of the item `C=CCc1ccc(OCCCC[N+](C)(C)CC(=O)NCCCCC)c(-c2ccc(OCCCC[N+](C)(C)CC(=O)NCCCCC)c(CC=C)c2)c1.[Br-].[Br-]` in your answer.
2 µg/mL

Return the recorded MIC value; entry: C[C@H]1COc2c(N3CCN(C)CC3)c(F)cc3c(=O)c(C(=O)O)cn1c23.C[C@H]1COc2c(N3CCN(C)CC3)c(F)cc3c(=O)c(C(=O)O)cn1c23.O [LEVOFLOXACIN]
0.5 µg/mL

Input `C=CCc1ccc(OCC[N+](C)(C)CC(=O)N(CCCC)CCCC)c(-c2ccc(OCC[N+](C)(C)CC(=O)N(CCCC)CCCC)c(CC=C)c2)c1.[Br-].[Br-]` , output reported MIC.
4 µg/mL

Indicate its recorded MIC; the molecule in question is `C=CCc1ccc(O)c(-c2cc(CC=C)ccc2OCCCC[N+](C)(C)CC(=O)N(CCCC)CCCC)c1.[Br-]`
1 µg/mL

# return recorded MIC for entry `C=CCc1ccc(O)c(-c2cc(CC=C)ccc2OCCCC[N+](C)(C)CC(=O)NCCCC)c1.[Br-]`
0.5 µg/mL

Write down MIC measured for item `C=CCc1ccc(O)c(-c2cc(CC=C)ccc2OCCC[N+](C)(C)CC(=O)NCCCCCC)c1.[Br-]`
0.5 µg/mL

Identify MIC associated with the molecule `C=CCc1ccc(OCCCC[N+](C)(C)CC(=O)NCCC)c(-c2ccc(OCCCC[N+](C)(C)CC(=O)NCCC)c(CC=C)c2)c1.[Br-].[Br-]`
2 µg/mL

Give the reported value of MIC for this record: `C=CCc1ccc(OCCCC[N+](C)(C)CC(=O)NCCCC)c(-c2ccc(OCCCC[N+](C)(C)CC(=O)NCCCC)c(CC=C)c2)c1.[Br-].[Br-]`
2 µg/mL

Look up MIC of `C=CCc1ccc(OCC[N+](C)(C)CC(=O)NCCC)c(-c2ccc(OCC[N+](C)(C)CC(=O)NCCC)c(CC=C)c2)c1.[Br-].[Br-]` and report it.
16 µg/mL

Origin of the recorded values: ChEMBL document CHEMBL4831516
